These data points were gathered from ChEMBL document CHEMBL1811784.

Each entry below carries its reported pIC50.
Test: Inhibition of Heliothis virescens SERCA expressed in Sf9 cells assessed as ATP depletion measured after 60 mins by luciferin/luciferase coupled reporter gene assay
pIC50: −log10 of the molar value.
valueKind: pIC50

molecule	inequalitySymbol	observedResult
CC(O)=C1C(=O)N2[C@H]3CCCC[C@H]3C(C)(C)N2C1=O (mixture of isomers)	=	4.40
CC(O)=C1C(=O)[C@H]2[C@H]3CCCC[C@H]3C(C)(C)N2C1=O (mixture of isomers)	=	4.70
C/C(O)=C1\C(=O)[C@H]2[C@H]3c4c[nH]c5cccc(c45)C[C@H]3C(C)(C)N2C1=O	=	6.30
CC(O)=C1C(=O)C2c3ccccc3C(C)(C)N2C1=O (mixture of isomers)	<	4.30
CC(O)=C1C(=O)[C@@H]2[C@H]3CCCC[C@H]3C(C)(C)N2C1=O (mixture of isomers)	=	6.20
CC(C)(C)c1cc(O)c(C(C)(C)C)cc1O	=	6.89
CC(O)=C1C(=O)N2c3ccccc3C(C)(C)N2C1=O (mixture of isomers)	=	4.40
C/C(O)=C1\C(=O)[C@@H]2[C@H]3[C@@H]4C(=O)N(C)c5cccc(c54)C[C@H]3C(C)(C)N2C1=O	=	5.10
